# MEASUREMENT DESCRIPTION: soluble on expression in E. coli; label from the status in PepcDB or PDB records
MEASURE: soluble on expression in E. coli

MGSDKIHHHHHHMNYKNRKRAYYQENSCMDNFICKNCGCLVVPEGAGTQHRNHCPHCLHSLHVDIIPGDRAADCDANMEPIGVWVRKNGEWAIIHRCTRCGHLSSNRIAADDNSVKLMSIALKPLAQPPFPLERIIEKLEKEETE = not soluble
MGSDKIHHHHHHMTKETATISQLQQDIINNSQKGFPLTSQPYKTIAEQLADVNIVTNELEVFQAIDDLNSQEVLSRVGPVFDHKKAGASTLAALAVPAKDLDKIAGIVNQFDQVNHNYGREHVYNLWFVVTASDMVALNSTIVNIELLTGLPVLVLPMEASYHIDLAFSINVTGIESPTSNQENRPVTFDNNDTTSLTDIEKTALRRAIEKGLPTHLFPYQAIAQQLALSEQQVLMQISLWQEEGLIRRFGLVIKHRKLGYDANAMVVWNIPNENMDAIALKLAKCAPVSLCYQRPRRLPDWPYNLFCMIHGTDRSLVLQQISQITEQLGLESIEKDVLFSFKAYKQHGARYFKTNSKKAKTNNISAGKTENNNDMKKQGQAHG = not soluble
